System under test: BRD4 (BDI_K57-E168) (Homo sapiens)
Construct: BD1: amino acids K57-E168
Assay method text: TR-FRET bromodomain binding assay, first bromodomain of BRD4
Stated conditions: His-tagged BD1, 100 nM Alexa647 probe; TR-FRET protocol A-E given per row
Class field: derived from Ki; ranges A: < 10 nM; B: ≥ 10 nM and < 100 nM; C: ≥ 100 nM

These solved cases illustrate the format of a correct answer.
                                   molecule                   system_under_test  label_value
0  COc1cccc(CNc2ccc(Oc3ccc(F)cc3F)c(-c3cn(C)c4c(=O)[nH]ccc34)c2)c1OCc1ccccc1 [Example 177]  BRD4 (BDI_K57-E168) (Homo sapiens)            C
1  CCS(=O)(=O)NCc1ccc(Oc2ccc(F)cc2F)c(-c2cn(C)c3c(=O)[nH]ccc23)c1 [Example 106]  BRD4 (BDI_K57-E168) (Homo sapiens)            B

query: Textbook exercise: identify the category of the molecule given here, Cn1cc(-c2cc(S(C)(=O)=O)ccc2NCC2C[C@@H]3CC[C@H]2C3)c2cc[nH]c(=O)c21 (stereo partly drawn) [Example 71] , according to its measured value.
result: C

query: Textbook exercise: identify the category of the molecule given here, Cn1cc(-c2cc(NCc3c(F)cccc3F)ccc2Oc2ccc(F)cc2F)c2cc[nH]c(=O)c21 [Example 175] , according to its measured value.
result: B

====

Test system: breast cancer cell line MX-1
Assay method text: MX-1 cell line proliferation assay
Type: cell-based
Stated conditions: Homo sapiens, MX1, 72 h, MX-1 cells, 3-day proliferation assay, Cell Titer Glo; read-out: Cellular proliferation EC50
Entries and their pEC50 values follow.
# pEC50 = -log10(concentration in molar units)

Example entries begin here.
>>> print(df.to_string())
                                   compound  measurement_kind  assay_result
0  Cn1cc(-c2cc(NS(C)(=O)=O)c(F)cc2Oc2ccc(F)cc2F)c2cc[nH]c(=O)c21             pEC50          7.43
1  Cn1cc(-c2cc(CNS(=O)(=O)Cc3ccc(C(F)(F)F)cc3)ccc2Oc2ccc(F)cc2F)c2cc[nH]c(=O)c21             pEC50          5.77
2  Cn1cc(-c2cc(CNS(=O)(=O)c3ccccc3)ccc2Oc2ccc(F)cc2F)c2cc[nH]c(=O)c21             pEC50          6.01
3  CCS(=O)(=O)Nc1ccc(Oc2ccc(F)cc2F)c(-c2cn(C)c3c(=O)[nH]c(C(=O)NCC4CCOC4)cc23)c1 (stereo not shown)             pEC50          7.43

query: Return pEC50 for the following compound: CCS(=O)(=O)C(C)c1ccc(Oc2ccc(F)cc2F)c(-c2cn(C)c3c(=O)[nH]ccc23)c1 (stereo not shown) [Example 55]
result: 7.54

query: Return pEC50 for the following compound: CCS(=O)(=O)Nc1ccc(Oc2ccc(F)cc2F)c(-c2cn(C)c3c(=O)[nH]c(C(=O)NCCN4CCOCC4)cc23)c1
result: 7.51

query: Return pEC50 for the following compound: Cn1cc(-c2cc(S(C)(=O)=O)ccc2OCC2(C)CC2)c2cc[nH]c(=O)c21
result: 6.72
